- Tested on: NCI-H2122
- Test: combination cScore with sotorasib (Bliss gap around IC50) (%PoC); higher = stronger additive effect
Exercise: for every item that follows, state its recorded combination cScore with sotorasib.

Note to self: combination cScore with sotorasib recorded for Cc1cc(Nc2nc(N[C@@H](C)c3ncc(F)cn3)ncc2Cl)[nH]n1 [AZD-1480] + C=CC(=O)N1CCN(c2nc(=O)n(-c3c(C)ccnc3C(C)C)c3nc(-c4c(O)cccc4F)c(F)cc23)[C@@H](C)C1 [sotorasib] was 5.41

Input C[C@H](Nc1ncnc2nc[nH]c12)c1cc2cccc(Cl)c2c(=O)n1-c1ccccc1 [Duvelisib] + C=CC(=O)N1CCN(c2nc(=O)n(-c3c(C)ccnc3C(C)C)c3nc(-c4c(O)cccc4F)c(F)cc23)[C@@H](C)C1 [sotorasib] . Output combination cScore with sotorasib: 14.2

Record C[C@@H](Oc1cc(-c2cnn(C3CCNCC3)c2)cnc1N)c1c(Cl)ccc(F)c1Cl + C=CC(=O)N1CCN(c2nc(=O)n(-c3c(C)ccnc3C(C)C)c3nc(-c4c(O)cccc4F)c(F)cc23)[C@@H](C)C1 [sotorasib] . Reported combination cScore with sotorasib: 2.31

Kindly note the recorded combination cScore with sotorasib for CN(C)c1ccccc1CN1CCCN(Cc2ccccc2N(C)C)C1c1ccncc1 [GANT61] + C=CC(=O)N1CCN(c2nc(=O)n(-c3c(C)ccnc3C(C)C)c3nc(-c4c(O)cccc4F)c(F)cc23)[C@@H](C)C1 [sotorasib] , which is -3.17

---

- Test system: NCI-H2122
- Test: combination cScore with sotorasib (Bliss gap around IC50) (%PoC); higher = stronger additive effect
Would you mind telling me the reported combination cScore with sotorasib of each entry?
Could you keep your reply to the number by itself?

combination cScore with sotorasib for Cn1nnc2c(C(N)=O)ncn2c1=O [Temozolomide] + C=CC(=O)N1CCN(c2nc(=O)n(-c3c(C)ccnc3C(C)C)c3nc(-c4c(O)cccc4F)c(F)cc23)[C@@H](C)C1 [sotorasib] is 6.39

Given item Cc1[nH]c2ccccc2c1CCNCc1ccc(/C=C/C(=O)NO)cc1 [Panobinostat] + C=CC(=O)N1CCN(c2nc(=O)n(-c3c(C)ccnc3C(C)C)c3nc(-c4c(O)cccc4F)c(F)cc23)[C@@H](C)C1 [sotorasib] , the value recorded as its combination cScore with sotorasib is 0.52

Value of combination cScore with sotorasib reported for the compound O=C(Cc1ccccc1)Nc1nnc(CCSCCc2nnc(NC(=O)Cc3ccccc3)s2)s1 [BPTES] + C=CC(=O)N1CCN(c2nc(=O)n(-c3c(C)ccnc3C(C)C)c3nc(-c4c(O)cccc4F)c(F)cc23)[C@@H](C)C1 [sotorasib] is 4.36

Summary for this compound, COc1cc2c(NC3CCN(C(C)C)CC3)nc(C3CCCCC3)nc2cc1OCCCN1CCCC1 [UNC0638] + C=CC(=O)N1CCN(c2nc(=O)n(-c3c(C)ccnc3C(C)C)c3nc(-c4c(O)cccc4F)c(F)cc23)[C@@H](C)C1 [sotorasib] : combination cScore with sotorasib is -0.46

---

Give combination cScore with sotorasib for every item shown.
- System: NCI-H2122
- Test: combination cScore with sotorasib (Bliss gap around IC50) (%PoC); higher = stronger additive effect
The answer should be written as a number, with no unit following it.

# combination cScore with sotorasib of COc1ccccc1-c1cc(Nc2cccc(CS(N)(=O)=O)c2)ncn1 [LDC-067] + C=CC(=O)N1CCN(c2nc(=O)n(-c3c(C)ccnc3C(C)C)c3nc(-c4c(O)cccc4F)c(F)cc23)[C@@H](C)C1 = 5.31

Quick note, combination cScore with sotorasib for CC(=O)c1c(C)c2cnc(Nc3ccc(N4CCNCC4)cn3)nc2n(C2CCCC2)c1=O [Palbociclib] + C=CC(=O)N1CCN(c2nc(=O)n(-c3c(C)ccnc3C(C)C)c3nc(-c4c(O)cccc4F)c(F)cc23)[C@@H](C)C1 landed at 8.77

Data point: COc1cc2nccc(Oc3ccc(NC(=O)C4(C(=O)Nc5ccc(F)cc5)CC4)cc3)c2cc1OC [XL-184] + C=CC(=O)N1CCN(c2nc(=O)n(-c3c(C)ccnc3C(C)C)c3nc(-c4c(O)cccc4F)c(F)cc23)[C@@H](C)C1 ; combination cScore with sotorasib = 11.7

Recorded result, C[C@H](CS)C(=O)N1CCC[C@H]1C(=O)O [Captopril] + C=CC(=O)N1CCN(c2nc(=O)n(-c3c(C)ccnc3C(C)C)c3nc(-c4c(O)cccc4F)c(F)cc23)[C@@H](C)C1 , combination cScore with sotorasib: 1.43

---

- Test system: SW837
- Test: combination cScore with adagrasib (Bliss gap around IC50) (%PoC); higher = stronger additive effect
Binary call on combination cScore with adagrasib: class 1 from 0.8 upward, class 0 beneath that.

// inclusive: combination cScore with adagrasib at least 0.8? input: Cn1nnc2c(C(N)=O)ncn2c1=O [Temozolomide] + C=C(F)C(=O)N1CCN(c2nc(OC[C@@H]3CCCN3C)nc3c2CCN(c2cccc4cccc(Cl)c24)C3)C[C@@H]1CC#N [adagrasib]
class 1

Threshold query (combination cScore with adagrasib >= 0.8) on CC1(C)CCC(c2ccc(Cl)cc2)=C(CN2CCN(c3ccc(C(=O)NS(=O)(=O)c4ccc(N[C@H](CCN5CCOCC5)CSc5ccccc5)c(S(=O)(=O)C(F)(F)F)c4)cc3)CC2)C1 [ABT-263] + C=C(F)C(=O)N1CCN(c2nc(OC[C@@H]3CCCN3C)nc3c2CCN(c2cccc4cccc(Cl)c24)C3)C[C@@H]1CC#N [adagrasib]
class 1

Tell me whether combination cScore with adagrasib is at least 0.8 here: CCc1cccc(CC)c1NC(=O)c1nn(C)c2c1CCc1cnc(Nc3ccc(C(=O)NC4CCN(C)CC4)cc3OC(F)(F)F)nc1-2 [NMS-P715] + C=C(F)C(=O)N1CCN(c2nc(OC[C@@H]3CCCN3C)nc3c2CCN(c2cccc4cccc(Cl)c24)C3)C[C@@H]1CC#N [adagrasib]
class 1

Check the entry Cc1c(Cn2c(C)nc3c(C(=O)O)cc(N4CCOCC4)cc32)cccc1C(F)(F)F + C=C(F)C(=O)N1CCN(c2nc(OC[C@@H]3CCCN3C)nc3c2CCN(c2cccc4cccc(Cl)c24)C3)C[C@@H]1CC#N [adagrasib] : does combination cScore with adagrasib equal or exceed 0.8?
class 0

Determine whether measured combination cScore with adagrasib meets or exceeds 0.8 for N#CC[C@H](C1CCCC1)n1cc(-c2ncnc3[nH]ccc23)cn1 [Ruxolitinib] + C=C(F)C(=O)N1CCN(c2nc(OC[C@@H]3CCCN3C)nc3c2CCN(c2cccc4cccc(Cl)c24)C3)C[C@@H]1CC#N [adagrasib]
class 0

Evaluate CCOC(=O)CCNc1cc(N2CCc3ccccc3CC2)nc(-c2ccccn2)n1 [GSK-J4] + C=C(F)C(=O)N1CCN(c2nc(OC[C@@H]3CCCN3C)nc3c2CCN(c2cccc4cccc(Cl)c24)C3)C[C@@H]1CC#N [adagrasib] : combination cScore with adagrasib at minimum 0.8?
class 0

Is reported combination cScore with adagrasib greater than or equal to 0.8 here: Nc1nc(Nc2ccc3c(c2)CC[C@@H](N2CCCC2)CC3)nn1-c1cc2c(nn1)-c1ccccc1CCC2 [Bemcentinib] + C=C(F)C(=O)N1CCN(c2nc(OC[C@@H]3CCCN3C)nc3c2CCN(c2cccc4cccc(Cl)c24)C3)C[C@@H]1CC#N [adagrasib]
class 0

Is combination cScore with adagrasib at least 0.8? Consider CC(C)(C)c1cc(NC(=O)Nc2ccc(-c3cn4c(n3)sc3cc(OCCN5CCOCC5)ccc34)cc2)no1 [Quizartinib] + C=C(F)C(=O)N1CCN(c2nc(OC[C@@H]3CCCN3C)nc3c2CCN(c2cccc4cccc(Cl)c24)C3)C[C@@H]1CC#N [adagrasib]
class 0

---

Give combination cScore with adagrasib for every item shown.
- System: NCI-H2122
- Test: combination cScore with adagrasib (Bliss gap around IC50) (%PoC); higher = stronger additive effect
Could you respond with only the numeric value?

// combination cScore with adagrasib lookup, compound = CN(C)C/C=C/C(=O)Nc1cc2c(Nc3ccc(F)c(Cl)c3)ncnc2cc1O[C@H]1CCOC1 [Afatinib] + C=C(F)C(=O)N1CCN(c2nc(OC[C@@H]3CCCN3C)nc3c2CCN(c2cccc4cccc(Cl)c24)C3)C[C@@H]1CC#N [adagrasib] , result: 11.1

The compound identified as C[C@H](Nc1ccc2c(c1)OCCn1cc(N3C(=O)OC[C@H]3C(F)F)nc1-2)C(N)=O [GDC-0077] + C=C(F)C(=O)N1CCN(c2nc(OC[C@@H]3CCCN3C)nc3c2CCN(c2cccc4cccc(Cl)c24)C3)C[C@@H]1CC#N [adagrasib] registered its combination cScore with adagrasib at 22.2

Item: NC(=O)c1ccc(-c2nc(-c3ccccn3)c(-c3ccc4c(c3)OCO4)[nH]2)cc1 + C=C(F)C(=O)N1CCN(c2nc(OC[C@@H]3CCCN3C)nc3c2CCN(c2cccc4cccc(Cl)c24)C3)C[C@@H]1CC#N [adagrasib] | combination cScore with adagrasib: 0.05

Sure, the documented combination cScore with adagrasib for Cc1ccc(NC(=O)c2ccnc(C(F)(F)F)c2)cc1-c1cc(OCCO)nc(N2CCOCC2)c1 [LXH-254] + C=C(F)C(=O)N1CCN(c2nc(OC[C@@H]3CCCN3C)nc3c2CCN(c2cccc4cccc(Cl)c24)C3)C[C@@H]1CC#N [adagrasib] is -3.51

combination cScore with adagrasib measured on O=C(O)CNC(=O)c1c(O)c2ccccc2n(Cc2ccccc2)c1=O [IOX2] + C=C(F)C(=O)N1CCN(c2nc(OC[C@@H]3CCCN3C)nc3c2CCN(c2cccc4cccc(Cl)c24)C3)C[C@@H]1CC#N [adagrasib] = 25.2

Sure, the documented combination cScore with adagrasib for Cc1[nH]c2ccccc2c1CCNCc1ccc(/C=C/C(=O)NO)cc1 [Panobinostat] + C=C(F)C(=O)N1CCN(c2nc(OC[C@@H]3CCCN3C)nc3c2CCN(c2cccc4cccc(Cl)c24)C3)C[C@@H]1CC#N [adagrasib] is 2.38

For reference, reported combination cScore with adagrasib for CO[C@H]1CC[C@H](n2c([C@@H]3CCCC(=O)N3c3ccc(F)c(F)c3)nc3cc(-c4c(C)noc4C)ccc32)CC1 [CCS1477] + C=C(F)C(=O)N1CCN(c2nc(OC[C@@H]3CCCN3C)nc3c2CCN(c2cccc4cccc(Cl)c24)C3)C[C@@H]1CC#N [adagrasib] stands at -1.66

So for CNCc1ccc(-c2cc(-c3nc(-c4ccc(S(=O)(=O)C(C)C)cc4)cnc3N)on2)cc1 [VE-822/VX-970] + C=C(F)C(=O)N1CCN(c2nc(OC[C@@H]3CCCN3C)nc3c2CCN(c2cccc4cccc(Cl)c24)C3)C[C@@H]1CC#N [adagrasib] , the logged combination cScore with adagrasib turned out to be 3.08

combination cScore with adagrasib reported for this compound CCOC(=O)CCNc1cc(N2CCc3ccccc3CC2)nc(-c2ccccn2)n1 [GSK-J4] + C=C(F)C(=O)N1CCN(c2nc(OC[C@@H]3CCCN3C)nc3c2CCN(c2cccc4cccc(Cl)c24)C3)C[C@@H]1CC#N [adagrasib] : 17.9

Record c1ccc(-c2nn3c(c2-c2ccnc4cc(OCCN5CCOCC5)ccc24)CCC3)nc1 + C=C(F)C(=O)N1CCN(c2nc(OC[C@@H]3CCCN3C)nc3c2CCN(c2cccc4cccc(Cl)c24)C3)C[C@@H]1CC#N [adagrasib] , field combination cScore with adagrasib: -21.2

combination cScore with adagrasib measured on O=c1cc(-c2cccc3c2Sc2ccccc2S3)oc(N2CCOCC2)c1 + C=C(F)C(=O)N1CCN(c2nc(OC[C@@H]3CCCN3C)nc3c2CCN(c2cccc4cccc(Cl)c24)C3)C[C@@H]1CC#N [adagrasib] = 12.4

compound CC(C)C[C@H](NC(=O)[C@H](Cc1ccccc1)NC(=O)c1cnccn1)B(O)O [Bortezomib] + C=C(F)C(=O)N1CCN(c2nc(OC[C@@H]3CCCN3C)nc3c2CCN(c2cccc4cccc(Cl)c24)C3)C[C@@H]1CC#N [adagrasib] , combination cScore with adagrasib observed: 4.5

Query COc1cc2cc(c1Cl)N(C)C(=O)C[C@H](OC(=O)C(C)C)[C@]1(C)O[C@@H]1[C@H](C)[C@@H]1C[C@@](O)(NC(=O)O1)[C@H](OC)/C=C/C=C(\C)C2 [Ansamitocin P3] + C=C(F)C(=O)N1CCN(c2nc(OC[C@@H]3CCCN3C)nc3c2CCN(c2cccc4cccc(Cl)c24)C3)C[C@@H]1CC#N [adagrasib] yields combination cScore with adagrasib of -2.93

combination cScore with adagrasib recorded for this compound, Cc1cc(Nc2nc(N[C@@H](C)c3ncc(F)cn3)ncc2Cl)[nH]n1 [AZD-1480] + C=C(F)C(=O)N1CCN(c2nc(OC[C@@H]3CCCN3C)nc3c2CCN(c2cccc4cccc(Cl)c24)C3)C[C@@H]1CC#N [adagrasib] , is 3.87

combination cScore with adagrasib in this record for CC(=O)c1c(C)c2cnc(Nc3ccc(N4CCNCC4)cn3)nc2n(C2CCCC2)c1=O [Palbociclib] + C=C(F)C(=O)N1CCN(c2nc(OC[C@@H]3CCCN3C)nc3c2CCN(c2cccc4cccc(Cl)c24)C3)C[C@@H]1CC#N [adagrasib] : 8.54

Summary for this compound, CCS(=O)(=O)Nc1ccc2c(c1)/C(=C(/Nc1ccc(CN3CCCCC3)cc1)c1ccccc1)C(=O)N2 [Hesperadin] + C=C(F)C(=O)N1CCN(c2nc(OC[C@@H]3CCCN3C)nc3c2CCN(c2cccc4cccc(Cl)c24)C3)C[C@@H]1CC#N [adagrasib] : combination cScore with adagrasib is 8.14

The reported measurements were obtained from the supplement of paper PMC11424490.
